These measurements were taken from ChEMBL document CHEMBL1201862.

Test system: SK-MEL-5
experimental_details: NCI tumour cell line growth inhibition, 48 h
Active and inactive are the calls of the source. Rule as the data show it: active = GI50 up to about 1.1 µM and inactive = higher.
Respond only with the outcome that fits, drawn from y = active, n = inactive

Example results:
[[record]]
compound = "CNC(=S)/C(=N\\Nc1[nH]cnc1C(N)=O)C(N)=S"
target_or_system = "SK-MEL-5"
group = "n"

[[record]]
compound = "O=C(Cc1ccccc1)NN1C(=O)C(Cl)C1c1cc(Br)ccc1O (stereo not drawn)"
target_or_system = "SK-MEL-5"
group = "n"

[[record]]
compound = "C=CCNC1=C2C[C@@H](C)C[C@H](OC)[C@H](O)[C@@H](C)/C=C(\\C)[C@H](OC(N)=O)[C@@H](OC)/C=C\\C=C(/C)C(=O)NC(=CC1=O)C2=O"
target_or_system = "SK-MEL-5"
group = "y"

[[record]]
compound = "COc1ccc(C(=O)C#Cc2cnc(O)nc2O)cc1"
target_or_system = "SK-MEL-5"
group = "n"

[[record]]
compound = "C1CCC2(CC1)O[C@@H]1[C@@H](O2)[C@@H](O[C@H]2O[C@@H]3COC4(CCCCC4)O[C@H]3[C@@H]3OC4(CCCCC4)O[C@@H]23)O[C@@H]2COC3(CCCCC3)O[C@@H]12"
target_or_system = "SK-MEL-5"
group = "n"


// return assay outcome for Cc1ccc([N+](=O)[O-])cc1/N=N/C(=O)NNc1cc([N+](=O)[O-])ccc1C
n

Hi, sorry to bother you, what did the test record for CCCCCCCCCCCCCCCC(=O)ON1C(=S)NC(C)(c2ccccc2)C1=S (stereo not drawn) ?
n

Write down the call the test reported for this compound. Item: CSC(=S)NN=C1CCCCC1
n

---

Test system: SW-620
experimental_details: NCI tumour cell line growth inhibition, 48 h
Calls of active or inactive are those of the source. No stated cut-off is given here; in the data, active = GI50 up to about 1.1 µM and inactive = higher.
Your reply should match one of these outcome classes. Yes for active, No for inactive

Here are 2 compounds together with their reported answers.
[[record]]
compound = "C1CCC2(CC1)O[C@@H]1[C@@H](O2)[C@@H](O[C@H]2O[C@@H]3COC4(CCCCC4)O[C@H]3[C@@H]3OC4(CCCCC4)O[C@@H]23)O[C@@H]2COC3(CCCCC3)O[C@@H]12"
target_or_system = "SW-620"
group = "No"

[[record]]
compound = "C=C(C)[C@H]1Cc2c(ccc3c2O[C@@H]2COc4cc(OC)c(OC)cc4[C@@H]2C3=O)O1 [ROTENONE]"
target_or_system = "SW-620"
group = "Yes"


Consider the record given below.
Answer briefly: the call reported for COc1ccc(/C=C2\CN(C)CC3=C2OC(N)=C(C#N)C3c2ccc(OC)cc2)cc1 (stereo not drawn) in this assay.
No

---

compounds and their reported GI50
Tested on: DU-145
experimental_details: NCI tumour cell line growth inhibition, 48 h
Activity calls are given as the source filed them. No stated cut-off is given here; in the data, active = GI50 up to about 1.1 µM and inactive = higher.

Some compounds with known GI50 results, for comparison:
[[record]]
compound = "CNC(=S)NNc1ncnc2c1c(-c1ccc(Cl)cc1)cn2-c1ccc(C)cc1"
result = "14.8 µM (inactive)"

[[record]]
compound = "CN1C(=O)C2CCC(=O)N2c2cccnc21 (centres undefined)"
result = "> 100 µM (inactive)"


Enter recorded GI50 with DU-145 for CC(C)(C)c1ccc(-c2nc3ccc(Cl)cc3c(=O)o2)cc1 here.
25.4 µM (inactive)

State, for DU-145, measured GI50 of the compound listed here: O=C(CC(C(=O)c1ccsc1)c1cccs1)c1ccccc1 (centres undefined)
54.6 µM (inactive)
